target: C. elegans Slo-1a (Caenorhabditis elegans, UniProt Q95V25); experiment: In vitro assay 1: C. elegans Slo-1a, action at a recombinant C. elegans CHO cell line (membrane potential measurement)
Sequence (Q95V25 whole entry): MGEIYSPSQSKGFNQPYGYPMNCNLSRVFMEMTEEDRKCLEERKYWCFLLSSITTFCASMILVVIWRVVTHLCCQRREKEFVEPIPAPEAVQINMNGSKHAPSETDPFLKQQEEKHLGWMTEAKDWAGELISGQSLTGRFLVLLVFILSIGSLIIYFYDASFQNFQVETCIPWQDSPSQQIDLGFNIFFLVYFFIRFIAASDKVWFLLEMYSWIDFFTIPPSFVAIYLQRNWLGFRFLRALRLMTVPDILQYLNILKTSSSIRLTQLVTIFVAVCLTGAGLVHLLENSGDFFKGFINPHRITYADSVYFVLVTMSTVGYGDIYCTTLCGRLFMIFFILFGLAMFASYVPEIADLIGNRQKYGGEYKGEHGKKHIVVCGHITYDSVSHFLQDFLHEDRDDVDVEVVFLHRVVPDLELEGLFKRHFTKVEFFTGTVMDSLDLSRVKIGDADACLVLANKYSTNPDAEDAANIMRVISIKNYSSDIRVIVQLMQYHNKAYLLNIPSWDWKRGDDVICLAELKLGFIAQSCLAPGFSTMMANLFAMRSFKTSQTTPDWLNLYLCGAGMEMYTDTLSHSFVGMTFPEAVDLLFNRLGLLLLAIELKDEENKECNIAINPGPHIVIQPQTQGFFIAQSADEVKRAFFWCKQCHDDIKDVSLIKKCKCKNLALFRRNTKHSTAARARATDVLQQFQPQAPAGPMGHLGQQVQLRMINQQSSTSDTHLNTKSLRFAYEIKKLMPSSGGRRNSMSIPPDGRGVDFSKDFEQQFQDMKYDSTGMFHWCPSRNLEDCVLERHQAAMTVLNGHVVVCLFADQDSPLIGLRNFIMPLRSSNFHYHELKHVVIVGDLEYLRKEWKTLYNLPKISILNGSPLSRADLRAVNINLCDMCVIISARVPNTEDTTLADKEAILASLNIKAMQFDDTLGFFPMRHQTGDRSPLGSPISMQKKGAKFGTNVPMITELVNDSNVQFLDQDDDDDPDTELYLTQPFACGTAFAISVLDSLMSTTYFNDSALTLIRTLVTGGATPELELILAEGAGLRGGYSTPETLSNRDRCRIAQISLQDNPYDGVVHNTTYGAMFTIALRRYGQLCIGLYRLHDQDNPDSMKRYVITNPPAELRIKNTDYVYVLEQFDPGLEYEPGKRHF
pEC50: −log10 of the molar value.
MEASURED_ATTRIBUTE: pEC50

>>> print(df.to_string())
                                    compound  test_value
 0  Cc1nn2c(C3CC3)c(C(=O)N[C@H]3CCOc4ccccc43)cnc2c1-c1ccc(F)c(F)c1 [Example 471]        8.40
 1  Cc1nn2c(C3CC3)c(C(=O)N[C@H]3CCOc4ccccc43)cnc2c1-c1cc(Cl)cc(Cl)c1Cl [Example 538]        9.50
 2  Cc1nn2c(C(C)C)c(C(=O)N[C@H]3CCc4ccccc43)cnc2c1-c1cccc(N2CC(F)(F)C2)c1 [Example 364]        8.00
 3  Cc1nn2c(C(C)C)c(C(=O)N[C@H]3CCc4ccccc43)cnc2c1-c1cccc(OC(F)F)c1 [Example 337]        7.90
 4  Cc1nn2c(C(C)C)c(C(=O)N[C@H]3CCOc4ccccc43)cnc2c1-c1cccc(Br)c1 [Example 204]        7.80
 5  CC(C)c1c(C(=O)N[C@H]2CCc3ccccc32)cnc2c(-c3ccc(Cl)cc3)c(Cl)nn12 [Example 73]        6.80
 6  Cc1nn2c(C(C)C)c(C(=O)N[C@H]3CCc4ccccc43)cnc2c1-c1cccc(CN2CCN(C)CC2)c1 [Example 399]        5.10
 7  Cc1nn2c(C(C)C)c(C(=O)N[C@H]3CCc4ccccc43)cnc2c1-c1cccc(C(F)(F)F)c1 [Example 4]        7.50
 8  Cc1nn2c(C(C)C)c(C(=O)N[C@H]3CCCc4ccccc43)cnc2c1-c1cncc(Cl)c1 [Example 362]        7.00
 9  CC(=O)Nc1cccc(-c2c(C)nn3c(C(C)C)c(C(=O)N[C@H]4CCc5ccccc54)cnc23)c1 [Example 298]        5.90
10  COc1cccc(-c2c(C)nn3c(C(C)C)c(C(=O)N[C@H]4CCCc5ccccc54)cnc23)c1 [Example 346]        7.90
11  Cc1nn2c(C(C)C)c(C(=O)N[C@H]3CCOc4ccccc43)cnc2c1-c1ccc(Cl)cc1 [Example 118]        7.80
12  Cc1nn2c(C(C)C)c(C(=O)N[C@H]3CCOc4ccccc43)cnc2c1-c1ccc2c(c1)CC(=O)N2 [Example 252]        5.90
13  CCn1cc(-c2c(C)nn3c(C(C)C)c(C(=O)N[C@H]4CCc5ccccc54)cnc23)cn1 [Example 374]        7.30
14  Cc1nn2c(C(C)C)c(C(=O)N[C@H]3CCc4ccccc43)cnc2c1-c1cccc(N(C)C)c1 [Example 299]        7.80

###

assay: log P by HPLC on reversed phase columns (Method L0; [a] acidic, [b] neutral range)
MEASURED_ATTRIBUTE: chromatographic logP

                           structure_string  test_value
0  CC(C)c1c(C(=O)N[C@H]2CCc3ccccc32)cnc2c(-c3cc(Cl)cc(Cl)c3)c(S(C)(=O)=O)nn12        4.35
1  Cc1nn2c(C(C)C)c(C(=O)N[C@H]3CCc4ccccc43)cnc2c1-c1cccc(F)c1F         4.6
2  COc1cccc(-c2c(C)nn3c(C(C)C)c(C(=O)N[C@H]4CCOc5ccccc54)cnc23)c1Cl        4.19
3  Cc1nn2c(C3CC3)c(C(=O)N[C@H]3CCOc4ccccc43)cnc2c1-c1cccc(F)c1Cl        3.72
4  Cc1nn2c(C(F)F)c(C(=O)N[C@H]3CCc4ccccc43)cnc2c1-c1cccc(C(F)(F)F)c1        4.36
5  Cc1nn2c(C3CC3)c(C(=O)N[C@H]3CCc4ccccc43)cnc2c1-c1ccc(F)c(F)c1         4.1
6  CC(C)c1c(C(=O)N[C@H]2CCc3ccccc32)cnc2c(-c3c(F)cccc3F)c(C3CC3)nn12        4.96

###

target: C. elegans Slo-1a (Caenorhabditis elegans); assay: In vitro assay 1: C. elegans Slo-1a, action at a recombinant C. elegans CHO cell line (membrane potential measurement)
Some molecules, each annotated with its measured log10 of EC50.
MEASURED_ATTRIBUTE: log10 of EC50 (log10 of the value in nM)

                                    molecule  test_value
 0  CC(C)c1c(C(=O)N[C@H]2CCCc3ccccc32)cnc2c(-c3ccccc3Cl)c(C(F)(F)F)nn12 [Example 89]        2.80
 1  CC(C)c1c(C(=O)N[C@H]2CCc3ccccc32)cnc2c(-c3cccc(OC(F)(F)F)c3)c(C(F)(F)F)nn12 [Example 149]        1.80
 2  COCc1cccc(-c2c(C)nn3c(C(C)C)c(C(=O)N[C@H]4CCOc5ccccc54)cnc23)c1 [Example 392]        1.00
 3  CSCc1cccc(-c2c(C)nn3c(C(C)C)c(C(=O)N[C@H]4CCc5ccccc54)cnc23)c1 [Example 388]        0.90
 4  Cc1nn2c(C3CC3)c(C(=O)N[C@H]3CCOc4ccccc43)cnc2c1-c1cccc(Cl)c1Cl [Example 473]       -0.30
 5  Cc1nn2c(C(C)C)c(C(=O)N[C@H]3CCc4ccccc43)cnc2c1-c1cncnc1 [Example 296]        3.90
 6  Cc1nn2c(C(C)C)c(C(=O)N[C@H]3CCOc4ccccc43)cnc2c1-c1cccc(C(F)F)c1 [Example 153]        2.10
 7  COc1cccc(-c2c(C)nn3c(C(C)C)c(C(=O)N[C@H]4CCOc5ccccc54)cnc23)c1 [Example 395]        0.90
 8  Cc1nn2c(C3CC3)c(C(=O)N[C@H]3CCc4ccccc43)cnc2c1-c1cccc(N(C)C)c1 [Example 348]        0.60
 9  Cc1nn2c(C3CC3)c(C(=O)N[C@H]3CCOc4ccccc43)cnc2c1-c1c(F)cccc1Cl [Example 458]        0.20
10  Cc1nn2c(C(C)C)c(C(=O)N[C@H]3CCc4ccccc43)cnc2c1-n1cc(Cl)cn1 [Example 447]        2.60
11  Cc1nn2c(C(C)C)c(C(=O)N[C@H]3CCCc4ccccc43)cnc2c1-c1ccc(F)cc1 [Example 343]        1.30
12  COCc1ccc(-c2c(C)nn3c(C(C)C)c(C(=O)N[C@H]4CCc5ccccc54)cnc23)cc1 [Example 340]        1.60
13  CC(C)c1c(C(=O)N[C@H]2CCCc3ccccc32)cnc2c(-c3cccc(C(F)(F)F)c3)c(C(F)(F)F)nn12 [Example 56]        2.60
14  Cc1nn2c(C3CC3)c(C(=O)N[C@H]3CCOc4ccccc43)cnc2c1-c1cc(F)ccc1F [Example 448]        0.50

###

molecular target: C. elegans Slo-1a (Caenorhabditis elegans); test: In vitro assay 1: C. elegans Slo-1a, action at a recombinant C. elegans CHO cell line (membrane potential measurement); details: CHO cells expressing C. elegans Slo-1a; voltage sensitive dye, FLIPR Tetra; negative decadic logarithm of EC50
Some compounds, each annotated with its measured pE50.
MEASURED_ATTRIBUTE: pE50

>>> print(df.to_string())
                           structure_string  measured_attribute  test_value
0  Cc1nn2c(N(C)C)c(C(=O)N[C@H]3CCOc4ccccc43)cnc2c1-c1cc(C(F)(F)F)ccc1F                pE50         8.9
1  Cc1nn2c(C(C)C)c(C(=O)N[C@H]3CCOc4ccc(Cl)cc43)cnc2c1-c1ccccc1F                pE50           7
2  Cc1nn2c(NC3CC3)c(C(=O)N[C@H]3CCOc4ccccc43)cnc2c1-c1cc(Cl)cc(Cl)c1                pE50         6.5
3  Cc1nn2c(C)c(C(=O)N[C@H]3CCCc4ccccc43)cnc2c1-c1ccccc1Cl                pE50         7.8
4  Cc1nn2c(N(C)C)c(C(=O)N[C@H]3CCOc4ccccc43)cnc2c1-c1cccc(Cl)c1F                pE50         8.7
5  Cc1c(C(=O)N[C@H]2CCc3ccccc32)cnc2c(-c3ccc(Cl)cc3)cnn12                pE50         6.7
6  O=C(N[C@H]1CCOc2ccccc21)c1cnc2c(-c3cc(Cl)ccc3Cl)c(C(F)F)nn2c1C1CC1                pE50         8.9
7  Cc1nn2c(C(C)C)c(C(=O)N[C@H]3CCOc4ccc(Cl)cc43)cnc2c1-c1ccc(F)c(F)c1                pE50         6.6
